target: BRD4-1 (Homo sapiens); construct: made in house; host or cells: Escherichia coli; experiment: Alpha assay, BRD4-1 binding to acetylated histone H4 peptide; conditions: 15 nM BRD4-1, 200 nM H4 peptide, 60 minutes at 25° C.; geometric mean of a minimum of four determinations; read-out: Alpha Assay (IC50)
pIC50: −log10 of the molar value.

[
  {
    "Molecule": "Cc1cnn(C)c1-c1cc(-c2c(C)noc2C)cc2nc(C3CC3)[nH]c12",
    "System": "BRD4-1 (Homo sapiens)",
    "pIC50": 7.34
  },
  {
    "Molecule": "Cc1ccc2ncccc2c1-c1cc(-c2c(C)noc2C)cc2[nH]c(-c3cnn(C)c3)nc12",
    "System": "BRD4-1 (Homo sapiens)",
    "pIC50": 7.80
  },
  {
    "Molecule": "CC/C=C(\\CC)c1cc(-c2c(C)noc2C)cc2nc(C3CC3)[nH]c12",
    "System": "BRD4-1 (Homo sapiens)",
    "pIC50": 7.74
  },
  {
    "Molecule": "Cc1nc2cc(-c3c(C)noc3C)cc(-c3c(C)n[nH]c3C)c2[nH]1",
    "System": "BRD4-1 (Homo sapiens)",
    "pIC50": 7.37
  },
  {
    "Molecule": "Cc1ccnc(C)c1-c1cc(-c2c(C)noc2C)cc2[nH]cnc12",
    "System": "BRD4-1 (Homo sapiens)",
    "pIC50": 6.56
  },
  {
    "Molecule": "Cc1ccnc(C)c1-c1cc(-c2c(C)noc2C)cc2nc(C3CC3)[nH]c12",
    "System": "BRD4-1 (Homo sapiens)",
    "pIC50": 7.65
  },
  {
    "Molecule": "Cc1noc(C)c1-c1cc(NC2CCCC2)c2nc(C3CC3)[nH]c2c1",
    "System": "BRD4-1 (Homo sapiens)",
    "pIC50": 6.90
  },
  {
    "Molecule": "CCC1CCC(=O)N1c1cc(-c2c(C)noc2C)cc2[nH]c(C3CC3)nc12 (centres unmarked)",
    "System": "BRD4-1 (Homo sapiens)",
    "pIC50": 7.28
  },
  {
    "Molecule": "Cc1ccc2ncccc2c1-c1cc(-c2c(C)noc2C)cc2nc(C3CC3)n(C)c12",
    "System": "BRD4-1 (Homo sapiens)",
    "pIC50": 7.72
  },
  {
    "Molecule": "Cc1n[nH]c(C)c1-c1cc(-c2c(C)noc2C)cc2nc(C3CC3(F)F)[nH]c12 (centres unmarked)",
    "System": "BRD4-1 (Homo sapiens)",
    "pIC50": 7.60
  },
  {
    "Molecule": "Cc1ccc2ncccc2c1-c1cc(-c2c(C)noc2C)cc2[nH]c(C(F)(F)F)nc12",
    "System": "BRD4-1 (Homo sapiens)",
    "pIC50": 7.42
  },
  {
    "Molecule": "COc1nc2c(-c3c(C)ccc4ncccc34)cc(-c3c(C)noc3C)cc2[nH]1",
    "System": "BRD4-1 (Homo sapiens)",
    "pIC50": 7.52
  },
  {
    "Molecule": "Cc1noc(C)c1-c1cc(N2C(=O)CCC2C)c2nc(C3CC3)[nH]c2c1 (centres unmarked)",
    "System": "BRD4-1 (Homo sapiens)",
    "pIC50": 6.29
  },
  {
    "Molecule": "Cc1noc(C)c1-c1cc(C(O)C2CCCC2)c2nc(C3CC3)[nH]c2c1 (centres unmarked)",
    "System": "BRD4-1 (Homo sapiens)",
    "pIC50": 7.61
  },
  {
    "Molecule": "CCC(O)(CC)c1cc(-c2c(C)noc2C)cc2c1nc(C1CC1)n2C",
    "System": "BRD4-1 (Homo sapiens)",
    "pIC50": 6.24
  },
  {
    "Molecule": "Cc1n[nH]c(C)c1-c1cc(-c2c(C)noc2C)cc2[nH]c(NC3CC3)nc12",
    "System": "BRD4-1 (Homo sapiens)",
    "pIC50": 7.29
  },
  {
    "Molecule": "Cc1n[nH]c(C)c1-c1cc(-c2c(C)noc2C)cc2[nH]c(NCC3CC3)nc12",
    "System": "BRD4-1 (Homo sapiens)",
    "pIC50": 7.47
  },
  {
    "Molecule": "Cc1noc(C)c1-c1cc(-c2cccnc2-c2ccccc2)c2nc(C3CC3)[nH]c2c1",
    "System": "BRD4-1 (Homo sapiens)",
    "pIC50": 7.55
  },
  {
    "Molecule": "Cc1noc(C)c1-c1cc(C(C)c2ccc(F)cc2)c2[nH]c(C3CC3)nc2c1 (centres unmarked)",
    "System": "BRD4-1 (Homo sapiens)",
    "pIC50": 7.66
  },
  {
    "Molecule": "Cc1n[nH]c(C)c1-c1cc(-c2c(C)noc2C)cc2nc(C3CC3)n(C)c12",
    "System": "BRD4-1 (Homo sapiens)",
    "pIC50": 7.91
  },
  {
    "Molecule": "Cc1ccc2ncccc2c1-c1cc(-c2c(C)noc2C)cc2[nH]c(C(O)CCO)nc12 (centres unmarked)",
    "System": "BRD4-1 (Homo sapiens)",
    "pIC50": 6.89
  },
  {
    "Molecule": "Cc1noc(C)c1-c1cc(C(O)(c2ccccc2)c2ccccc2)c2nc(C3CC3)[nH]c2c1",
    "System": "BRD4-1 (Homo sapiens)",
    "pIC50": 7.84
  },
  {
    "Molecule": "Cc1n[nH]c(C)c1-c1cc(-c2c(C)noc2C)cc2nc(N)[nH]c12",
    "System": "BRD4-1 (Homo sapiens)",
    "pIC50": 7.27
  }
]

The measured values listed here are drawn from patent US20160075695A1.
